This collection of values is drawn from patent US20260285815A1.

Experiment: in vivo
Parameters: species or system SD rats
Conditions: rat, po, 15 mg/kg
propertyLabel: AUC(0-t) (ng·h/mL)
Give the value in ng·h/mL but do not write ng·h/mL after it.

Solved entries:
- compound: "COc1cc(C(=O)O)ccc1OCCn1ccnc1 [Compound A, reference compound]"
  unitText: "ng·h/mL"
  AUC(0-t): 1610
- compound: "COc1cc(C(=O)OCCCCCC(=O)O)ccc1OCCn1ccnc1"
  unitText: "ng·h/mL"
  AUC(0-t): 3230

Please find the next compound below.
Measured AUC(0-t), `COc1cc(C(=O)OCOC(=O)OC(C)C)ccc1OCCn1ccnc1` : 2890
